Let's look at some compounds and their measured MIC.
Tested on: Isogenic E. coli J58 strain carrying TEM-26
procedure_details: MIC determination, isogenic E. coli strains
Assay type: cell-based
condition_label: Escherichia coli, 18 h, read-out: Mimimum Inhibitory Concentrations, TEM-26
Kindly answer with a numeric value in µg/mL, unit omitted.

Per the record, C#CC[N+]1(Cc2ccc(C=CC3=C(C(=O)O)N4C(=O)[C@@H](NC(=O)/C(=N\OC(C)(C)C(=O)O)c5csc(N)n5)[C@H]4SC3)cc2)CCc2cc(O)c(O)cc2C1 (mixture of isomers) has MIC of 0.25

Looking up CC(C)(O/N=C(\C(=O)N[C@@H]1C(=O)N2C(C(=O)O)=C(C=Cc3ccc(C[N+](C)(C)Cc4ccc(O)c(O)c4Cl)cc3)CS[C@H]12)c1csc(N)n1)C(=O)O (mixture of isomers) , I found its MIC recorded as 2

Query CC(C)(O/N=C(\C(=O)N[C@@H]1C(=O)N2C(C(=O)O)=C(C=Cc3ccc(C[N+]4(C)CCc5ccc(O)c(O)c5C4)cc3)CS[C@H]12)c1csc(N)n1)C(=O)O (mixture of isomers) yields MIC of 0.5

Measured MIC, CC(C)(O/N=C(\C(=O)N[C@@H]1C(=O)N2C(C(=O)O)=C(C=Cc3ccc(C[n+]4cccc(-c5ccc(O)c(O)c5)c4)cc3)CS[C@H]12)c1csc(N)n1)C(=O)O (mixture of isomers) : 1

The reported MIC of the compound CC(C)(O/N=C(\C(=O)N[C@@H]1C(=O)N2C(C(=O)O)=C(C=Cc3ccc(C[N+](C)(C)Cc4cc(O)c(O)c(Cl)c4)cc3)CS[C@H]12)c1csc(N)n1)C(=O)O (mixture of isomers) was 2

Query CC(C)(O/N=C(\C(=O)N[C@@H]1C(=O)N2C(C(=O)O)=C(C=Cc3ccc(C[N+](C)(C)CCc4ccc(O)c(O)c4)cc3)CS[C@H]12)c1csc(N)n1)C(=O)O (mixture of isomers) yields MIC of 1

====

Test system: EA (URMC -3)
procedure_details: MIC determination
Assay type: cell-based
condition_label: CAMH broth, 20 μM Apo-Transferrin, 37° C., 18 hours
Experimental: Sterile technique was used throughout these experiments. Suspensions of organisms were removed from storage (−80° C.) and partially thawed. […] For each organism the MIC was determined by identifying the transparent well with the lowest test compound concentration.
Below, each entry is listed with its recorded Mimimum Inhibitory Concentrations, EA (URMC -3).
Numeric answer only, unit microgram/mL assumed.

>>> reported("CC(C)(O/N=C(\\C(=O)N[C@@H]1C(=O)N2C(C(=O)O)=C(C=Cc3ccc(C[N+]4(C)CCc5cc(O)c(O)cc5C4)cc3)CS[C@H]12)c1csc(N)n1)C(=O)O (mixture of isomers)")
2

Turning to the following compound.
Form: item CC(C)(O/N=C(\C(=O)N[C@@H]1C(=O)N2C(C(=O)O)=C(C=Cc3ccc(C[N+]4(C)CCc5c(Cl)c(O)c(O)c(Cl)c5C4)cc3)CS[C@H]12)c1csc(N)n1)C(=O)O (mixture of isomers) ; test system EA (URMC -3); Mimimum Inhibitory Concentrations, EA (URMC -3): 2

====

Tested on: ENC (Enterobacter cloacae)
procedure_details: MIC determination
Format: cell-based
condition_label: CAMH broth, 20 μM Apo-Transferrin, 37° C., 18 hours
Here, each record is paired with measured Mimimum Inhibitory Concentrations, ENC data.
Please answer in the form of a number followed by its unit of measurement.

Take a look at these entries with their results.
>>> reported("C#CC[N+]1(Cc2ccc(C=CC3=C(C(=O)O)N4C(=O)[C@@H](NC(=O)/C(=N\\OC(C)(C)C(=O)O)c5csc(N)n5)[C@H]4SC3)cc2)CCc2cc(O)c(O)cc2C1 (mixture of isomers)")
"4 microgram/mL"
>>> reported("CC(C)(O/N=C(\\C(=O)N[C@@H]1C(=O)N2C(C(=O)O)=C(C=Cc3ccc(C[N+]4(C)CCc5cc(O)c(O)cc5C4)cc3)CS[C@H]12)c1csc(N)n1)C(=O)O (mixture of isomers)")
"4 microgram/mL"
>>> reported("CC(C)(O/N=C(\\C(=O)N[C@@H]1C(=O)N2C(C(=O)O)=C(C=Cc3ccc(C[n+]4ccc5cc(O)c(O)cc5c4)cc3)CS[C@H]12)c1csc(N)n1)C(=O)O (mixture of isomers)")
"16 microgram/mL"
>>> reported("CC(C)(O/N=C(\\C(=O)N[C@@H]1C(=O)N2C(C(=O)O)=C(C=Cc3ccc(C[n+]4ccc(-c5ccc(O)c(O)c5)cc4)cc3)CS[C@H]12)c1csc(N)n1)C(=O)O (mixture of isomers)")
"4 microgram/mL"

Consider the record given below.
Query CC(C)(O/N=C(\C(=O)N[C@@H]1C(=O)N2C(C(=O)O)=C(C=Cc3ccc(C[N+]4(C)CCc5ccc(O)c(O)c5C4)cc3)CS[C@H]12)c1csc(N)n1)C(=O)O (mixture of isomers) yields Mimimum Inhibitory Concentrations, ENC of 8 microgram/mL
